The entries that follow carry IC50 values tested on PAK2 (PAK65) (Homo sapiens), drawn from several published reports.
Sequence (Q13177 whole entry): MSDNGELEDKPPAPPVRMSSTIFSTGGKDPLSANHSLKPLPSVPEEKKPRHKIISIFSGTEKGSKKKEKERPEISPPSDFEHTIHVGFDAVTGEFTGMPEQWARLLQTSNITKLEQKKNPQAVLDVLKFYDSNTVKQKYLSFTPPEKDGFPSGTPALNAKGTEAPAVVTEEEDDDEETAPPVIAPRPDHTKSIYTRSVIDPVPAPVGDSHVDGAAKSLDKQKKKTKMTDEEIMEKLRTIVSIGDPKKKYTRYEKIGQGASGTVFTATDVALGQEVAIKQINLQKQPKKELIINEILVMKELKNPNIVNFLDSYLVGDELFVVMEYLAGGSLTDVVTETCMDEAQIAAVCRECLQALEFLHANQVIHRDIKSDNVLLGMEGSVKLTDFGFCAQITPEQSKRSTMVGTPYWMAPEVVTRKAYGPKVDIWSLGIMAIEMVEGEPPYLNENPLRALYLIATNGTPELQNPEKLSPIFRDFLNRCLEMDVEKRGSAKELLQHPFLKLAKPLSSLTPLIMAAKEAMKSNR
readout label: IC50

mol_smiles=CCn1c(=O)c(-c2ccc(-c3cncs3)cc2)cc2cnc(Nc3ccc(N4CCN(C)CC4)cc3)nc21 endpoint_result="500 to 5000 nM"
mol_smiles=CCn1c(=O)c(-c2ccc(-c3cnc(C)s3)cc2Cl)cc2cnc(Nc3ccc(C4=CCNCC4)cc3)nc21 endpoint_result="< 50 nM"
mol_smiles=CCOC(=O)c1nc(-c2ccc(-c3cc4cnc(Nc5ccc(N6CCN(C)CC6)cc5)nc4n(CC)c3=O)c(Cl)c2)no1 endpoint_result="50 to 500 nM"
mol_smiles=CC(=O)Nc1ncccc1-c1ccc(Cl)c(-c2cc3cnc(Nc4ccc(C5CCN(C)CC5)cc4)nc3n(C)c2=O)c1 endpoint_result="50 to 500 nM"
mol_smiles=CN1CCN(c2ccc(Nc3nccc(-c4ccc(NCCN)nc4)n3)cc2F)CC1 endpoint_result="1000 to 10000 nM"
mol_smiles=CCn1c(=O)c(-c2ccc(-c3cccnc3F)cc2Cl)cc2cnc(Nc3ccc(C4CCN(C)CC4)cc3)nc21 endpoint_result="< 50 nM"
mol_smiles=CC(=O)N(C)c1ncccc1-c1ccc(Cl)c(-c2cc3cnc(Nc4ccc(C5CCN(C)CC5)cc4)nc3n(C)c2=O)c1 endpoint_result="> 5000 nM"
mol_smiles=CN1CCC(c2ccc(Nc3ncc4cc(-c5cc(-c6cnccn6)ccc5Cl)c(=O)n(C)c4n3)cc2)CC1 endpoint_result="500 to 5000 nM"
mol_smiles=CCn1c(=O)c(-c2ccc(-c3cccnc3)cc2Cl)cc2cnc(Nc3ccc(N4CCN(C)CC4)cc3)nc21 endpoint_result="< 50 nM"
mol_smiles=CCn1c(=O)c(-c2ccc(-c3cccnc3)cc2Cl)cc2cnc(Nc3ccccc3)nc21 endpoint_result="500 to 5000 nM"
mol_smiles=CCn1c(=O)c(-c2ccc(-c3ccnc(C)c3)cc2Cl)cc2cnc(Nc3ccc(C4CCN(C)CC4)c(F)c3)nc21 endpoint_result="< 50 nM"
mol_smiles=CCN1CCN(c2ccc(Nc3ncc4cc(-c5ccc(-c6cccnc6)cc5Cl)c(=O)n(CC)c4n3)cc2)CC1 endpoint_result="< 50 nM"
mol_smiles=COc1cccc(F)c1Cn1c(=O)ccc2cnc(Nc3ccc(N4CCN(C)CC4)cc3)nc21 endpoint_result="1000 to 10000 nM"
mol_smiles=CCn1c(=O)c(-c2ccc(-c3noc(C)n3)cc2Cl)cc2cnc(Nc3ccc(C4CCN(C(C)C)CC4)cc3)nc21 endpoint_result="< 50 nM"
mol_smiles=CCN1CCC(c2ccc(Nc3ncc4cc(-c5ccc(-c6cccnc6C)cc5Cl)c(=O)n(C)c4n3)cc2)CC1 endpoint_result="50 to 500 nM"
mol_smiles=CCn1c(=O)c(-c2ccc(-c3ccc(F)nc3C)cc2Cl)cc2cnc(Nc3ccc(C4CCNCC4)cc3)nc21 endpoint_result="50 to 500 nM"
